Data provenance is paper PMC9743092.

MIC values by entry
# Tested on: P. aeruginosa (ATCC 27883)
# testDetails: microbe, parasite or virus in culture
# cond: Pseudomonas aeruginosa, ATCC27883, read-out: MIC P. aeruginosa (ATCC 27883)
The reply should contain only the number, in µg/mL.

• CN[C@H](CC(C)C)C(=O)N[C@H]1C(=O)N[C@@H](CC(N)=O)C(=O)N[C@H]2C(=O)N[C@H]3C(=O)N[C@H](C(=O)N[C@H](C(=O)O)c4cc(O)cc(O)c4-c4cc3ccc4O)[C@H](O)c3ccc(c(Cl)c3)Oc3cc2cc(c3O[C@@H]2O[C@H](CO)[C@@H](O)[C@H](O)[C@H]2O[C@H]2C[C@](C)(N)[C@H](O)[C@H](C)O2)Oc2ccc(cc2Cl)[C@H]1O = 256
• C[C@@H](O)[C@H]1C(=O)N2C(C(=O)O)=C(S[C@@H]3CN[C@H](C(=O)N(C)C)C3)[C@H](C)[C@H]12 = 1

Kindly consider the entry below.
[in] # get_value(readout= MIC, system= P. aeruginosa (ATCC 27883)) for NC[C@H]1O[C@H](O[C@H]2[C@H](O)[C@@H](O[C@H]3O[C@H](CO)[C@@H](O)[C@H](N)[C@H]3O)[C@H](N)C[C@@H]2N)[C@H](N)C[C@@H]1O
[out] 0.5

---

# System: human red blood cells (hRBCs)
# cond: red cells of human, 2 h
Square brackets hold non-standard residues; d marks the D form. Peptide text beside a SMILES is read from it.
Consider the cut-off 100 µg/mL. If the recorded HC50 is strictly smaller, the label is MET; if not, the label is NOT MET.

The following compounds have reported results that may help.
• N=C(N)NCCC[C@@H]1NC(=O)[C@H](CCCNC(=N)N)NC(=O)[C@H](Cc2c[nH]c3ccccc23)NC(=O)[C@H](Cc2c[nH]c3ccccc23)NC(=O)[C@H](Cc2c[nH]c3ccccc23)NC(=O)[C@H](Cc2c[nH]c3ccccc23)NC(=O)[C@H](Cc2c[nH]c3ccccc23)NC(=O)[C@H](Cc2c[nH]c3ccccc23)NC(=O)[C@H](CCCNC(=N)N)NC1=O [3d, [R3W6]] = MET
• N=C(N)NCCC[C@@H]1NC(=O)[C@H](CCCNC(=N)N)NC(=O)[C@H](CCCNC(=N)N)NC(=O)[C@H](Cc2c[nH]c3ccccc23)NC(=O)[C@H](Cc2c[nH]c3ccccc23)NC(=O)[C@H](Cc2c[nH]c3ccccc23)NC(=O)[C@H](Cc2c[nH]c3ccccc23)NC(=O)[C@H](CCCNC(=N)N)NC1=O [compound 1, [R4W4]] (cyclo(RRRRWWWW)) = NOT MET

[in] Would you kindly verify if HC50 of N=C(N)NCCC[C@@H]1NC(=O)[C@H](CCCNC(=N)N)NC(=O)[C@H](CCCNC(=N)N)NC(=O)[C@H](CCCNC(=N)N)NC(=O)[C@H](Cc2c[nH]c3ccccc23)NC(=O)[C@H](Cc2c[nH]c3ccccc23)NC(=O)[C@H](Cc2c[nH]c3ccccc23)NC(=O)[C@H](Cc2c[nH]c3ccccc23)NC(=O)[C@H](Cc2c[nH]c3ccccc23)NC(=O)[C@H](Cc2c[nH]c3ccccc23)NC(=O)[C@H](CCCNC(=N)N)NC(=O)[C@H](CCCNC(=N)N)NC(=O)[C@H](CCCNC(=N)N)NC1=O [7c, [R7W6]] (cyclo(RRRRRRRWWWWWW)) is strictly less than 100 µg/mL?
[out] NOT MET

[in] Is it true that HC50 reported for N=C(N)NCCC[C@@H]1NC(=O)[C@H](CCCNC(=N)N)NC(=O)[C@H](Cc2c[nH]c3ccccc23)NC(=O)[C@H](Cc2c[nH]c3ccccc23)NC(=O)[C@H](Cc2c[nH]c3ccccc23)NC1=O [2a, [R2W3]] (cyclo(RRWWW); ring closure inferred) is less than 100 µg/mL?
[out] NOT MET

[in] A record lists N=C(N)NCCC[C@H]1NC(=O)[C@H](Cc2c[nH]c3ccccc23)NC(=O)[C@H](Cc2c[nH]c3ccccc23)NC(=O)[C@H](Cc2c[nH]c3ccccc23)NC(=O)[C@H](Cc2c[nH]c3ccccc23)NC(=O)[C@@H](CCCNC(=N)N)NC(=O)[C@@H](CCCNC(=N)N)NC(=O)[C@@H](CCCNC(=N)N)NC1=O [4a, [dR4W4]] (cyclo([dR][dR][dR][dR]WWWW)) . Is its HC50 below 100 µg/mL?
[out] NOT MET

[in] Criterion: HC50 strictly below 100 µg/mL. Is it met by N=C(N)NCCC[C@@H]1NC(=O)[C@H](CCCNC(=N)N)NC(=O)[C@H](Cc2c[nH]c3ccccc23)NC(=O)[C@H](Cc2c[nH]c3ccccc23)NC(=O)[C@H](Cc2c[nH]c3ccccc23)NC(=O)[C@H](Cc2c[nH]c3ccccc23)NC(=O)[C@H](Cc2c[nH]c3ccccc23)NC(=O)[C@H](CCCNC(=N)N)NC1=O [3c, [R3W5]] (cyclo(RRRWWWWW); ring closure inferred) ?
[out] MET
